These measurements were taken from patent US8383623B2.

molecular target: Cdc7 (BEV coexpressed huCDC7/DBF4) (Homo sapiens); assay: Cdc7 enzyme inhibition assay ([33P]-ATP, biotinylated peptide substrate, FlashPlate); settings: Ki generated from IC50 assuming ATP-competitive inhibition, apparent ATP Km 0.7 μM; 1 μM ATP, 1 hr
Sequence (O00311 whole entry): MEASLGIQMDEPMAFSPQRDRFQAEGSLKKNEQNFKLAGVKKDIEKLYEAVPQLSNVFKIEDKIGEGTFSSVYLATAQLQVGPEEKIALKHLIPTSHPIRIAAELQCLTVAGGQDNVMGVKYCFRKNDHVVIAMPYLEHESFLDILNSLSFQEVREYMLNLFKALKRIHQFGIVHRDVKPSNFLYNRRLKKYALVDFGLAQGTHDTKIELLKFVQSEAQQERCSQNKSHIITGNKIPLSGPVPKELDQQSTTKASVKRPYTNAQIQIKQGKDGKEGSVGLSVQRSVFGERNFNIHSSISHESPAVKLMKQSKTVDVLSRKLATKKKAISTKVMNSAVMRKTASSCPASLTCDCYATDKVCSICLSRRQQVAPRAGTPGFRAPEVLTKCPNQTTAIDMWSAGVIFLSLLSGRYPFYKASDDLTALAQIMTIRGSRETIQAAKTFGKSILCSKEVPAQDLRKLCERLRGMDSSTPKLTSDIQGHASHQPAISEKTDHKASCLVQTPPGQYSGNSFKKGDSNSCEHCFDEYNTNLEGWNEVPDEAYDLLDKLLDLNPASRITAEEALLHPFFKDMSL
Sequence (Q9UBU7 whole entry partner): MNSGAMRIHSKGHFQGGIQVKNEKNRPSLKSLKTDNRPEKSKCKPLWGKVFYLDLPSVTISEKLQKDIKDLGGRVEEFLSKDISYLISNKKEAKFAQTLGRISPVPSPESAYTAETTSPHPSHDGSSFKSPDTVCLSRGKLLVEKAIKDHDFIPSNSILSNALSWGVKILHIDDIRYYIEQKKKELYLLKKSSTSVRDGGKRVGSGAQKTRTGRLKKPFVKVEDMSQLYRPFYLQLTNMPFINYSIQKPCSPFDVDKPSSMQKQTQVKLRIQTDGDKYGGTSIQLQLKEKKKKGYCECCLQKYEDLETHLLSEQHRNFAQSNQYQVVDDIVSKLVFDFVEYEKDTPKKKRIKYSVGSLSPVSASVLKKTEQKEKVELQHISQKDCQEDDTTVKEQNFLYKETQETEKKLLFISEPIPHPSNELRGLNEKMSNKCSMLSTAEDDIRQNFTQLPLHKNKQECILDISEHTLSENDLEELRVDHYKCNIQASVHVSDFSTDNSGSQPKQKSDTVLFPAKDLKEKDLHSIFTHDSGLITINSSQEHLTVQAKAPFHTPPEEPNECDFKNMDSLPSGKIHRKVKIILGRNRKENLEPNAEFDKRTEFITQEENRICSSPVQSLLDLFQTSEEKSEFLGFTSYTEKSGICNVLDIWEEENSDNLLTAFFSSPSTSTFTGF
pKi: −log10 of the molar value.
Observable: pKi

See these solved cases before continuing.
| Compound | pKi |
| --- | --- |
| O=c1[nH]nc(CC2CCCCN2)c2cc(-c3c[nH]c4ncccc34)ccc12 (stereo not drawn) | < 7.00 |
| O=c1[nH]nc(CC2CCNCC2)c2cc(-c3c[nH]c4ncccc34)ccc12 | 7.00 to 8.00 |

Continue with the next compound.
Problem: # query: pKi of entry Cn1ccc(Cc2n[nH]c(=O)c3ccc(-c4c[nH]c5ncccc45)cc23)n1
Result: 7.00 to 8.00
